Experiment: Single dose pharmacokinetics in CD1 mice (IV, IP, PO), plasma LC-MS/MS
Type: in vivo, mouse
Settings: male, CD-1, mouse, in vivo, po, 50 mg/kg, Plasma concentration, Mean
MEASUREMENT_NAME: concentration at 360 min (ng/mL)
Express the result in ng/mL but write the number alone.

**Query** Looking for the measured concentration at 360 min of N#Cc1ccc(/C=C2/C(=O)/C(=C/c3ccc(C#N)cc3)C23CCNCC3)cc1 [Up284] , can you help?
**Result** 473

----------
Assay: Single dose pharmacokinetics in CD1 mice (IV, IP, PO), plasma LC-MS/MS
Type: in vivo, mouse
Conditions: CD-1, mouse, in vivo, ip, 20 mg/kg, Plasma concentration, Mean
MEASUREMENT_NAME: concentration at 15 min (ng/mL)
Express the result in ng/mL but write the number alone.

**Query** Looking for the measured concentration at 15 min of `N#Cc1ccc(/C=C2/C(=O)/C(=C/c3ccc(C#N)cc3)C23CCNCC3)cc1` , can you help?
**Result** 2180

----------
Test: Single dose pharmacokinetics in CD1 mice (IV, IP, PO), plasma LC-MS/MS
Assay type: in vivo, mouse
Settings: male, CD-1, mouse, in vivo, po, 50 mg/kg, Plasma concentration, Mean
MEASUREMENT_NAME: concentration at 480 min (µg/mL)
Express the result in µg/mL but write the number alone.

**Query** Looking for the measured concentration at 480 min of N#Cc1ccc(/C=C2/C(=O)/C(=C/c3ccc(C#N)cc3)C23CCNCC3)cc1 [Up284] , can you help?
**Result** 0.589

----------
Assay: Single dose pharmacokinetics in CD1 mice (IV, IP, PO), plasma LC-MS/MS
Assay type: in vivo, mouse
Details: male, CD1, mouse, in vivo, ip, 20 mg/kg
MEASUREMENT_NAME: Cmax (µg/mL)
Express the result in µg/mL but write the number alone.

**Query** Looking for the measured Cmax of N#Cc1ccc(/C=C2/C(=O)/C(=C/c3ccc(C#N)cc3)C23CCNCC3)cc1 [Up284] , can you help?
**Result** 2.46

----------
Test: Single dose pharmacokinetics in CD1 mice (IV, IP, PO), plasma LC-MS/MS
Type: in vivo, mouse
Conditions: CD-1, mouse, in vivo, ip, 20 mg/kg, Plasma concentration, Mean
MEASUREMENT_NAME: concentration at 60 min (ng/mL)
Express the result in ng/mL but write the number alone.

**Query** Looking for the measured concentration at 60 min of `N#Cc1ccc(/C=C2/C(=O)/C(=C/c3ccc(C#N)cc3)C23CCNCC3)cc1` , can you help?
**Result** 2400

----------
Assay: Single dose pharmacokinetics in CD1 mice (IV, IP, PO), plasma LC-MS/MS
Type: in vivo, mouse
Settings: CD-1, mouse, in vivo, ip, 20 mg/kg, Plasma concentration, Mean
MEASUREMENT_NAME: concentration at 240 min (ng/mL)
Express the result in ng/mL but write the number alone.

**Query** Looking for the measured concentration at 240 min of `N#Cc1ccc(/C=C2/C(=O)/C(=C/c3ccc(C#N)cc3)C23CCNCC3)cc1` , can you help?
**Result** 1740

----------
Experiment: Single dose pharmacokinetics in CD1 mice (IV, IP, PO), plasma LC-MS/MS
Assay type: in vivo, mouse
Settings: male, CD-1, mouse, in vivo, po, 50 mg/kg, Plasma concentration, Mean
MEASUREMENT_NAME: concentration at 1440 min
Form field: result (number plus unit)

**Query** Looking for the measured concentration at 1440 min of `N#Cc1ccc(/C=C2/C(=O)/C(=C/c3ccc(C#N)cc3)C23CCNCC3)cc1` , can you help?
**Result** 425 ng/mL

----------
Assay: Repeat IP dosing tolerability in Balb/c and C57BL/6 mice
Format: in vivo
Details: mouse, in vivo, ip; female Balb/c and C57BL/6 mice; read-out: MTD after 3 doses, IP delivery every third day
MEASUREMENT_NAME: MTD (mg/kg)
Express the result in mg/kg but write the number alone.

**Query** Looking for the measured MTD of N#Cc1ccc(/C=C2/C(=O)/C(=C/c3ccc(C#N)cc3)C23CCNCC3)cc1 [Up284] , can you help?
**Result** 40

----------
Test: Single dose pharmacokinetics in CD1 mice (IV, IP, PO), plasma LC-MS/MS
Assay type: in vivo, mouse
Conditions: male, CD1, mouse, in vivo, po, 50 mg/kg
MEASUREMENT_NAME: Tmax (min)
Express the result in min but write the number alone.

**Query** Looking for the measured Tmax of `N#Cc1ccc(/C=C2/C(=O)/C(=C/c3ccc(C#N)cc3)C23CCNCC3)cc1` , can you help?
**Result** 15

----------
Test: Single dose pharmacokinetics in CD1 mice (IV, IP, PO), plasma LC-MS/MS
Type: in vivo, mouse
Details: male, CD1, mouse, in vivo, iv, 5 mg/kg, Plasma concentration, Mean
MEASUREMENT_NAME: concentration at 120 min
Form field: result (number plus unit)

**Query** Looking for the measured concentration at 120 min of `N#Cc1ccc(/C=C2/C(=O)/C(=C/c3ccc(C#N)cc3)C23CCNCC3)cc1` , can you help?
**Result** 669 ng/mL

----------
Assay: Single dose pharmacokinetics in CD1 mice (IV, IP, PO), plasma LC-MS/MS
Assay type: in vivo, mouse
Settings: male, CD1, mouse, in vivo, iv, 5 mg/kg
MEASUREMENT_NAME: half-life (h)
Express the result in h but write the number alone.

**Query** Looking for the measured half-life of `N#Cc1ccc(/C=C2/C(=O)/C(=C/c3ccc(C#N)cc3)C23CCNCC3)cc1` , can you help?
**Result** 19

----------
Assay: Single dose pharmacokinetics in CD1 mice (IV, IP, PO), plasma LC-MS/MS
Format: in vivo, mouse
Settings: male, CD-1, mouse, in vivo, po, 50 mg/kg, Plasma concentration
Method: For single dose pharmacokinetic studies, plasma samples (40 μL) were mixed with 200 μL of a water-methanol mixture 1:9, v/v containing the internal standard elacridar at 400 ng/mL. […] The lower limit of quantitation (LLOQ) in plasma was 50 ng/mL. Pharmacokinetic parameters were calculated from mean concentration-time data using non-compartmental methods in Phoenix WinNonlin version 8.3 (Certara, Princeton, NJ). […] The AUClast was calculated using the log-linear trapezoidal method. […]
MEASUREMENT_NAME: concentration at 60 min (ng/mL)
Express the result in ng/mL but write the number alone.

**Query** Looking for the measured concentration at 60 min of N#Cc1ccc(/C=C2/C(=O)/C(=C/c3ccc(C#N)cc3)C23CCNCC3)cc1 [Up284] , can you help?
**Result** 1560

----------
Assay: Single dose pharmacokinetics in CD1 mice (IV, IP, PO), plasma LC-MS/MS
Assay type: in vivo, mouse
Conditions: male, CD1, mouse, in vivo, iv, 5 mg/kg
MEASUREMENT_NAME: AUC(0-inf) (ng·h/mL)
Express the result in ng·h/mL but write the number alone.

**Query** Looking for the measured AUC(0-inf) of `N#Cc1ccc(/C=C2/C(=O)/C(=C/c3ccc(C#N)cc3)C23CCNCC3)cc1` , can you help?
**Result** 9770

----------
Assay: Single dose pharmacokinetics in CD1 mice (IV, IP, PO), plasma LC-MS/MS
Assay type: in vivo, mouse
Conditions: male, CD-1, mouse, in vivo, po, 50 mg/kg, Plasma concentration
MEASUREMENT_NAME: concentration at 120 min (ng/mL)
Express the result in ng/mL but write the number alone.

**Query** Looking for the measured concentration at 120 min of `N#Cc1ccc(/C=C2/C(=O)/C(=C/c3ccc(C#N)cc3)C23CCNCC3)cc1` , can you help?
**Result** 1650

----------
Test: Single dose pharmacokinetics in CD1 mice (IV, IP, PO), plasma LC-MS/MS
Format: in vivo, mouse
Details: male, CD-1, mouse, in vivo, po, 50 mg/kg, Plasma concentration, Mean
MEASUREMENT_NAME: concentration at 30 min (ng/mL)
Express the result in ng/mL but write the number alone.

**Query** Looking for the measured concentration at 30 min of `N#Cc1ccc(/C=C2/C(=O)/C(=C/c3ccc(C#N)cc3)C23CCNCC3)cc1` , can you help?
**Result** 1280

----------
Assay: Plasma Protein Binding (equilibrium dialysis)
Format: in vitro ADME, mouse
Settings: mouse, non-diluted plasma, pH 7.4, mouse plasma, individual incubations
MEASUREMENT_NAME: recovery at 5 h, 1 µM (%)
Express the result in % but write the number alone.

**Query** Looking for the measured recovery at 5 h, 1 µM of `N#Cc1ccc(/C=C2/C(=O)/C(=C/c3ccc(C#N)cc3)C23CCNCC3)cc1` , can you help?
**Result** 98

----------
Test: Single dose pharmacokinetics in CD1 mice (IV, IP, PO), plasma LC-MS/MS
Assay type: in vivo, mouse
Settings: CD-1, mouse, in vivo, ip, 20 mg/kg, Plasma concentration
MEASUREMENT_NAME: concentration at 120 min (ng/mL)
Express the result in ng/mL but write the number alone.

**Query** Looking for the measured concentration at 120 min of N#Cc1ccc(/C=C2/C(=O)/C(=C/c3ccc(C#N)cc3)C23CCNCC3)cc1 [Up284] , can you help?
**Result** 1950
